# PROTOCOL: viability of PTEN-null HCT116 cells – cell-based, HCT116 clonal line, CellTiter-Glo, pilot screen (AID 824);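 also: 0% = 20 µM Hyamine control and 100% = vehicle cell control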
# CONDITION PARAMETERS: HCT116 PTEN-deleted viability, 60 h, at 10 µM, stronger effect = lower value
Inconclusive results are not listed.
Under this convention, y denotes viability strictly below 90% and n denotes viability at or above 90%.

- COMPOUND: "CCOC(=O)C(C(=O)OCC)C(C)C#CCN1CCCCC1 (stereo unspecified)"
  LABEL VALUE: "n"
- COMPOUND: "CCOC(=O)c1ccc2ncc(C(=O)OCC)c(NCCN(C)C)c2c1"
  LABEL VALUE: "n"
- COMPOUND: "Cc1ccccc1-n1nc2c(c1NC(=O)c1cccc(F)c1)CS(=O)C2 (stereo unspecified)"
  LABEL VALUE: "n"
- COMPOUND: "COc1ccc(-n2c(C)nc3c(cnn3-c3ccc(C)c(C)c3)c2=O)cc1"
  LABEL VALUE: "y"
- COMPOUND: "NC(=O)C1CCN(CCCNC2CC(=O)N(Cc3ccc(N4CCCC4=O)cc3)C2=O)CC1 (stereo unspecified)"
  LABEL VALUE: "n"
- COMPOUND: "Cc1ccc(C)c(C(=O)CC2(O)C(=O)N(C)c3ccccc32)c1 (stereo unspecified)"
  LABEL VALUE: "n"

Bench note: check whether `O=C(Nc1cccc(Cl)c1)N1CCN(Cc2ccccc2)CC1` shows viability below 90%
y

====

Collected inhibition values appear next to each entry.
# PROTOCOL: RAM pathway blockade in budding yeast – dse1pr::URA3 reporter, 5-FOA selection, pilot screen (AID 869);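 also: 0% = DMSO wells with no growth and 100% = 10 µM 1-NA-PP1 with full growth; RAM network block rescues cells from 5-FOA so hits raise OD615 growth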
# CONDITION PARAMETERS: S. cerevisiae dse1pr::URA3 5-FOA growth, OD615, 2 d; at 10 µM; stronger effect = higher value; strain carries analog-sensitive mutant Cbk1 kinase
Lab book: enter the figure in %, no units written.

Recorded inhibition, per entry:
- COMPOUND: "COC(=O)C1=C(C)Nc2ncnn2C1c1ccc(C)o1 (stereo not given)"
  METRIC NAME: "inhibition"
  MEASURE UNIT: "%"
  MEASURED VALUE: 2.39
- COMPOUND: "O=C(c1ccccc1S(=O)(=O)NCc1ccccc1)N1CCCCC1"
  METRIC NAME: "inhibition"
  MEASURE UNIT: "%"
  MEASURED VALUE: 1.01
- COMPOUND: "Cn1cc(S(=O)(=O)N2CCN(Cc3ccccc3)CC2)c(=O)n(C)c1=O"
  METRIC NAME: "inhibition"
  MEASURE UNIT: "%"
  MEASURED VALUE: 0.755
- COMPOUND: "Cc1onc(-c2ccccc2Cl)c1C(=O)Nc1ccc(S(=O)(=O)N2CCCC2)cc1"
  METRIC NAME: "inhibition"
  MEASURE UNIT: "%"
  MEASURED VALUE: 1.72
- COMPOUND: "Cc1cc(C(N)=O)c2cc(Br)ccc2n1"
  METRIC NAME: "inhibition"
  MEASURE UNIT: "%"
  MEASURED VALUE: 0.94

Now turn to the next compound.
Which inhibition value is on record for `CCOc1ccccc1NC(=O)CSc1nnc(-c2ccccn2)n1Cc1ccco1` ?
0.955

====

Collected viability values appear next to each entry.
# PROTOCOL: viability of HCT116 without oncogenic beta-catenin – human colon tumor cells, pilot screen (AID 823);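 also: 0% = wells killed by 20 µM Hyamine and 100% = untreated DMSO cell wells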
# CONDITION PARAMETERS: HCT116 beta-catenin knockout viability, CellTiter-Glo, 60 h; at 10 µM; stronger effect = lower value
Records with an inconclusive call do not appear.
Lab book: enter the figure in %, no units written.

Recorded viability, per entry:
- COMPOUND: "Clc1c(CSc2nc3ccccc3o2)nc2sccn12"
  MEASURE UNIT: "%"
  viability: 77.3
- COMPOUND: "COc1ccc(CCc2nc(-c3ccc(-n4cccc4)cc3)no2)cc1"
  MEASURE UNIT: "%"
  viability: 93.9
- COMPOUND: "COc1cccc(C2c3c(oc4ccc(F)cc4c3=O)C(=O)N2CCCN2CCOCC2)c1 (stereo not given)"
  MEASURE UNIT: "%"
  viability: 105
- COMPOUND: "COc1ccc(C(c2sc3nc(C)nn3c2O)N2CCCCC2)cc1 (stereo not given)"
  MEASURE UNIT: "%"
  viability: 100

Which viability value is on record for `c1ccc(-c2cn3cccnc3n2)cc1` ?
110
